FYI, the data here is from patent US10106554B2.

EXPERIMENT: MTD (Maximum Tolerated Dose) study in mice, OECD procedure
EXPERIMENTAL CONTEXT: both sexes, mouse, in vivo, oral; p.o, single dose, 14 days observation, Swiss Albino mice
METRIC: MTD at 14 days (mg/kg)
One number for each entry, in mg/kg.

Fill in reported MTD at 14 days for this entry: Cc1c(CN2CCN(S(C)(=O)=O)CC2)sc2c(N3CCOCC3)nc(-c3cnc(N)nc3)cc12
500
